Molecular target: adenosine 2a receptor (Homo sapiens, UniProt P29274)
Sequence (P29274 whole entry): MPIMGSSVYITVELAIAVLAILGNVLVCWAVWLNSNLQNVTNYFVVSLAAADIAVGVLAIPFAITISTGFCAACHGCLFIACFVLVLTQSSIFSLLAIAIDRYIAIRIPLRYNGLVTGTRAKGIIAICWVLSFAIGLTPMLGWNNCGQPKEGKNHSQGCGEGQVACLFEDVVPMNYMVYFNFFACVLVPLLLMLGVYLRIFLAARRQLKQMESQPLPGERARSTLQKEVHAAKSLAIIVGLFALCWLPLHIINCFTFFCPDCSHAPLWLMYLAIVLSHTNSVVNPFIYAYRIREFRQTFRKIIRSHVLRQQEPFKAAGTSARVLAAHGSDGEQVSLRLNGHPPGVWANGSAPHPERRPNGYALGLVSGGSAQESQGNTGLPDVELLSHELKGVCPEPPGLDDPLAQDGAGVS
Assay: Agonist activity against adenosine 2a receptor (CHO cells, cAMP/SPAP reporter)
Assay type: cell-based
Conditions: CHO cells transfected with human receptor; basal cAMP via SPAP; mean of all the versions tested
Provide the reported A2a EC50 as a ratio of that of NECA of each item.
Give bare numbers.

Below are worked cases with known answers.
INSERT INTO measurements (compound, recorded_number) VALUES
  ('Cn1nnc(C2OC(n3cnc4c(NCC(c5ccccc5)c5ccccc5)nc(NCCc5ccccn5)nc43)C(O)C2O)n1.O=CO.O=CO (stereo not shown)', 2.34),
  ('CCn1nnc(C2OC(n3cnc4c(NC5CCCC5)nc(NC(CO)Cc5ccccc5)nc43)C(O)C2O)n1 (stereo not shown)', 1.99),
  ('Cn1cnc(CCNc2nc(NCc3ccccc3)c3ncn([C@@H]4O[C@H](c5nnn(C)n5)[C@@H](O)[C@H]4O)c3n2)c1.O=CO', 0.43);

Next, consider the following compound.
[in] Suppose we examine the compound Cn1nnc(C2OC(n3cnc4c(NCC(c5ccccc5)c5ccccc5)nc(NC5CCC(N)CC5)nc43)C(O)C2O)n1.O=CO.O=CO (stereo not shown) ; what A2a EC50 as a ratio of that of NECA value has been reported?
[out] 5.07

---

Provide the reported A3 EC50 as a ratio of that of NECA of each item.
Target: adenosine 3 receptor (Homo sapiens, UniProt P0DMS8)
Sequence (P0DMS8 1-318): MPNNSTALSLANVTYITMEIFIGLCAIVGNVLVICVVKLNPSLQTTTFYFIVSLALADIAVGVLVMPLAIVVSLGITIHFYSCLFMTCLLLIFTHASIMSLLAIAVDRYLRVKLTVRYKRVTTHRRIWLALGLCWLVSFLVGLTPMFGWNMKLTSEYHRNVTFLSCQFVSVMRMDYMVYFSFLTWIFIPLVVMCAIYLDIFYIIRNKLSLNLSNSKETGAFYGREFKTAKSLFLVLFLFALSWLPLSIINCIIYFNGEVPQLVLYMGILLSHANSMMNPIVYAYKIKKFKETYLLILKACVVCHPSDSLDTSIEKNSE
Assay: Agonist activity against adenosine 3 receptor (CHO cells, forskolin-enhanced cAMP/SPAP reporter)
Type: cell-based
Settings: CHO cells transfected with human receptor; forskolin-enhanced cAMP via SPAP; mean of all the versions tested
Where a name gives a salt, the structure may show the parent alone.

Below are worked cases with known answers.
INSERT INTO results (compound, experimental_system, assay_metric, result) VALUES
  ('Cn1cnc(CCNc2nc(NCCC3CCCCC3)c3ncn([C@@H]4O[C@H](c5nnn(C)n5)[C@@H](O)[C@H]4O)c3n2)c1.O=CO', 'adenosine 3 receptor (Homo sapiens, UniProt P0DMS8)', 'A3 EC50 as a ratio of that of NECA', '>100'),
  ('CC(C)n1nnc(C2OC(n3cnc4c(NC5CCCC5)nc(NCCN5CCCC5)nc43)C(O)C2O)n1.O=CO.O=CO (stereo not shown)', 'adenosine 3 receptor (Homo sapiens, UniProt P0DMS8)', 'A3 EC50 as a ratio of that of NECA', '>156'),
  ('CCn1nnc([C@H]2O[C@@H](n3cnc4c(N)nc(NCCc5ccc(OC)c(OC)c5)nc43)[C@H](O)[C@@H]2O)n1.O=C(O)C(F)(F)F', 'adenosine 3 receptor (Homo sapiens, UniProt P0DMS8)', 'A3 EC50 as a ratio of that of NECA', '>183'),
  ('CCC(CC)Nc1nc(NCCc2cn(C)cn2)nc2c1ncn2[C@@H]1O[C@H](c2nnn(C(C)C)n2)[C@@H](O)[C@H]1O.O=CO', 'adenosine 3 receptor (Homo sapiens, UniProt P0DMS8)', 'A3 EC50 as a ratio of that of NECA', '>749'),
  ('CCn1nnc([C@H]2O[C@@H](n3cnc4c(N)nc(NCCc5ccc(O)c(O)c5)nc43)[C@H](O)[C@@H]2O)n1.O=CO', 'adenosine 3 receptor (Homo sapiens, UniProt P0DMS8)', 'A3 EC50 as a ratio of that of NECA', '>209'),
  ('CCn1nnc([C@H]2O[C@@H](n3cnc4c(N)nc(N[C@H]5CC[C@H](N)CC5)nc43)[C@H](O)[C@@H]2O)n1', 'adenosine 3 receptor (Homo sapiens, UniProt P0DMS8)', 'A3 EC50 as a ratio of that of NECA', '>960');

// for each compound in input: emit A3 EC50 as a ratio of that of NECA
1. Cn1nnc(C2OC(n3cnc4c(NCC(c5ccccc5)c5ccccc5)nc(NC5CCC(N)CC5)nc43)C(O)C2O)n1.O=CO.O=CO (stereo not shown)
2. CCn1nnc([C@H]2O[C@@H](n3cnc4c(NCC(c5ccccc5)c5ccccc5)nc(NC5CCS(=O)(=O)CC5)nc43)[C@H](O)[C@@H]2O)n1.O=C(O)C(F)(F)F
3. CCn1nnc(C2OC(n3cnc4c(N)nc(NC5CCCC5O)nc43)C(O)C2O)n1 (stereo not shown) [Example 10, Hydrochloride]

[out]
[">153", ">297.0", 3.66]

---

Provide the reported A3 EC50 as a ratio of that of NECA of each item.
Biological target: adenosine 3 receptor (Homo sapiens, UniProt P0DMS8)
Assay: Agonist activity against adenosine 3 receptor (CHO cells, forskolin-enhanced cAMP/SPAP reporter)
Type: cell-based
Settings: CHO cells transfected with human receptor; forskolin-enhanced cAMP via SPAP; mean of all the versions tested

INSERT INTO assay_data (compound, assay_metric, result) VALUES
  ('CCn1nnc([C@H]2O[C@@H](n3cnc4c(N)nc(NCCc5cn(C)cn5)nc43)[C@H](O)[C@@H]2O)n1.O=CO', 'A3 EC50 as a ratio of that of NECA', '>175');

// for each compound in input: emit A3 EC50 as a ratio of that of NECA
1. Cn1nnc(C2OC(n3cnc4c(NCC(c5ccccc5)c5ccccc5)nc(NC5CCNC5)nc43)C(O)C2O)n1 (stereo not shown)
2. CCn1nnc(C2OC(n3cnc4c(NC5CCCC5)nc(NCCc5cn(C)cn5)nc43)C(O)C2O)n1 (stereo not shown)
3. CCn1nnc(C2OC(n3cnc4c(NCCc5ccccc5)nc(NC5CCN(Cc6ccccc6)C5)nc43)C(O)C2O)n1.O=CO.O=CO (stereo not shown)

[out]
1. >411
2. >161
3. >174

---

Target: adenosine 1 receptor (Homo sapiens)
Sequence (P30542 whole entry): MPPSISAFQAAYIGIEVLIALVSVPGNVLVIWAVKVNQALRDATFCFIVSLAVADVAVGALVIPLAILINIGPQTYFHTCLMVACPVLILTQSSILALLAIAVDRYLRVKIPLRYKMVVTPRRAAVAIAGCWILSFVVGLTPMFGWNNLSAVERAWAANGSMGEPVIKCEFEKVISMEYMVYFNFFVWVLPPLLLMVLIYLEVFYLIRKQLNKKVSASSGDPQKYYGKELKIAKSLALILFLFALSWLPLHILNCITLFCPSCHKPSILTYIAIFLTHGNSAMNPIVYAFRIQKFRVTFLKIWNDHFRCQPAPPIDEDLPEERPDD
Assay: Agonist activity against adenosine 1 receptor (CHO cells, forskolin-enhanced cAMP/SPAP reporter)
Type: cell-based
Conditions: CHO cells transfected with human receptor; forskolin-enhanced cAMP via SPAP; mean of all the versions tested
assay metric: A1 EC50 as a ratio of that of NECA
Answers are plain numbers.

INSERT INTO results (compound, experimental_system, recorded_number) VALUES
  ('Cn1nnc([C@H]2O[C@@H](n3cnc4c(N)nc(NC5CC6CCC5C6)nc43)[C@H](O)[C@@H]2O)n1.O=CO (stereo partly drawn) [Example 39]', 'adenosine 1 receptor (Homo sapiens)', 1429),
  ('CCn1nnc([C@H]2O[C@@H](n3cnc4c(N)nc(Nc5ccc(F)cc5)nc43)[C@H](O)[C@@H]2O)n1.O=C(O)C(F)(F)F [Example 13]', 'adenosine 1 receptor (Homo sapiens)', 266.9),
  ('CC(C)n1nnc([C@H]2O[C@@H](n3cnc4c(N[C@H](CO)Cc5ccccc5)nc(NCCc5ccccn5)nc43)[C@H](O)[C@@H]2O)n1.O=CO [Example 63]', 'adenosine 1 receptor (Homo sapiens)', 55.60),
  ('CCn1nnc([C@H]2O[C@@H](n3cnc4c(N)nc(NC5CC6CCC5C6)nc43)[C@H](O)[C@@H]2O)n1.O=C(O)C(F)(F)F (stereo partly drawn) [Example 19]', 'adenosine 1 receptor (Homo sapiens)', 85.6),
  ('CC(=O)O.CCC(CC)Nc1nc(NCCc2cn(C)cn2)nc2c1ncn2[C@@H]1O[C@H](c2nnn(CC)n2)[C@@H](O)[C@H]1O [Example 6]', 'adenosine 1 receptor (Homo sapiens)', 34.4);

Next, consider the following compound.
[in] Request body: readout A1 EC50 as a ratio of that of NECA, system adenosine 1 receptor (Homo sapiens), query CCn1nnc([C@H]2O[C@@H](n3cnc4c(NCc5cccc(I)c5)nc(NCCN5CCOCC5)nc43)[C@H](O)[C@@H]2O)n1 [Example 48] . Return the value.
[out] 102.00

---

Biological target: adenosine 2a receptor (Homo sapiens, UniProt P29274)
Assay: Agonist activity against adenosine 2a receptor (CHO cells, cAMP/SPAP reporter)
Format: cell-based
Details: CHO cells transfected with human receptor; basal cAMP via SPAP; mean of all the versions tested
Could you label it rule met if measured A2a EC50 as a ratio of that of NECA is 1 or higher, and rule not met otherwise?

Example entries begin here.
INSERT INTO results (compound, class_label) VALUES
  ('CCn1nnc([C@H]2O[C@@H](n3cnc4c(N)nc(NCCc5cn(C)cn5)nc43)[C@H](O)[C@@H]2O)n1.O=CO [Example 54]', 'rule met'),
  ('Cn1nnc(C2OC(n3cnc4c(NCC(c5ccccc5)c5ccccc5)nc(NC(CO)Cc5ccccc5)nc43)C(O)C2O)n1 (stereo not shown) [Example 95]', 'rule met'),
  ('CC(=O)O.CCn1nnc([C@H]2O[C@@H](n3cnc4c(NCCC(C)(C)C)nc(NCCc5cn(C)cn5)nc43)[C@H](O)[C@@H]2O)n1 [Example 9]', 'rule not met'),
  ('CCn1nnc(C2OC(n3cnc4c(NC5CCCC5)nc(NCCN5CCCCC5)nc43)C(O)C2O)n1.O=CO.O=CO (stereo not shown) [Example 104]', 'rule met'),
  ('Cn1nnc(C2OC(n3cnc4c(NCC(c5ccccc5)c5ccccc5)nc(NCCN5CCOCC5)nc43)C(O)C2O)n1.O=CO.O=CO (stereo not shown) [Example 98]', 'rule met');

[in] Reported A2a EC50 as a ratio of that of NECA reaches at least 1 for CCn1nnc(C2OC(n3cnc4c(NC5CCCC5)nc(NCCc5cn(C)cn5)nc43)C(O)C2O)n1 (stereo not shown) [Example 7] ?
[out] rule not met

[in] And for Cn1nnc(C2OC(n3cnc4c(NCc5cccc(I)c5)nc(NCCN5CCCC5)nc43)C(O)C2O)n1.O=CO.O=CO (stereo not shown) [Example 108] ?
[out] rule met
